// data source = paper PMC6984350

Molecular target: T1, Filamin A domains 4-6, wild type (human, UniProt P21333 571-861)
T1 sequence (looked up): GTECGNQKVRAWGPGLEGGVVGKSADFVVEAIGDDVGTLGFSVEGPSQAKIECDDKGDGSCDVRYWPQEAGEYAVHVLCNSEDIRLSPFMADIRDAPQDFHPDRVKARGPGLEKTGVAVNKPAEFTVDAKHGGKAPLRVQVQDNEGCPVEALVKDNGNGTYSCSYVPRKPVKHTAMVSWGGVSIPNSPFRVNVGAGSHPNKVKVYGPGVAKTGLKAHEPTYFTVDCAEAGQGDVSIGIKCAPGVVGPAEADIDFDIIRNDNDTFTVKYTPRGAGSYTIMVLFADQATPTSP
Assay: SPR
measurement-name: Kd (µM)

binder	Kd [µM]
PTPN12–600-709 (domain or fragment, UniProt Q05209 600-709, looked up) PLHSDDSDSDERNSDGAVTQNKTNISTASATVSAATSTESISTRKVLPMSIARHNIAGTTHSGAEKDVDVSEDSPPPLPERTPESFVLASEHNTPVRSEWSELQSQERSE	0.32
PTPN12 634–709 (domain or fragment, UniProt Q05209 634-709, looked up) ATSTESISTRKVLPMSIARHNIAGTTHSGAEKDVDVSEDSPPPLPERTPESFVLASEHNTPVRSEWSELQSQERSE	0.27
